Multiple publications report Ki for Carbonic anhydrase 9 (Homo sapiens, UniProt Q16790); what follows is a combined list.
measured quantity: Ki (nM)

C=CCn1c2ccc(F)cc2c2nnc(SCc3cn(-c4ccc(S(N)(=O)=O)cc4)nn3)nc21 : 402
CCCCCN(CCCCC)CCC(=O)N(CCc1ccc(S(N)(=O)=O)cc1)Cc1ccccc1 : 134
NS(=O)(=O)c1ccc(NC(=S)NC(=O)c2ccc(Cl)cc2)cc1 : 115

1 = NS(=O)(=O)c1ccc(NC(=O)c2cc3sccc3n2Cc2ccccc2)cc1
2 = NS(=O)(=O)c1ccc(CCN2C(=O)/C(=C/c3ccc(F)cc3)C=C2c2ccccc2)cc1
3 = NS(=O)(=O)c1ccc(C(=O)NCc2cn(CCCS(=O)(=O)[O-])nn2)cc1.[Na+]
4 = CN1C(=O)C(=C2C(=O)Nc3ccc(F)cc32)SC1=Nc1ccc(S(N)(=O)=O)cc1
5 = COCc1cc(=O)oc2cc(NC(=O)[C@H](C)NC(=O)N[C@@H](C)C(=O)OC)ccc12
Input: Arrange these compounds by their Ki, starting with the largest number. Thanks in advance for listing the labels in the requested order.
Output: 1, 2, 4, 5, 3

====

Multiple publications report Ki for UniProt Q16790; what follows is a combined list.
measured quantity: Ki (µM)

In the examples that follow, each entry is paired with its recorded Ki.
NS(=O)(=O)c1cccc(NC(=O)c2ccc3[nH]ccc3c2)c1 : 0.766
NS(=O)(=O)c1ccc(CNC(=O)Nc2ccc(C(=O)N3CC(=O)N4CCc5ccccc5C4C3)cc2)cc1 (centres unmarked) : 0.112
COc1cc(/C=C/C(=O)OCCCN(C)CCCCCOC(=O)COc2ccc3ccc(=O)oc3c2)cc(OC)c1OC : 0.0474

I = COc1cc(/C=C/C(=O)OCCCCCCN(C)CCCCOC(=O)COc2ccc3ccc(=O)oc3c2)cc(OC)c1OC
II = CC(=O)N[C@@H](C)C(=O)Nc1ccc2c(C)cc(=O)oc2c1
III = Cn1c(C(=O)Nc2ccc(S(N)(=O)=O)cc2)cc2occc21
IV = CC1(C)CC(=O)c2cnc(Nc3ccc(S(=O)(=O)Nc4ccccc4)cc3)nc2C1
V = Cc1ccc(C(C)C)cc1OCCCOc1ccc2ccc(=O)oc2c1
Input: Ascending by Ki, please: list the molecules accordingly. Thanks in advance for listing the labels in the requested order.
Output: II, I, III, V, IV
(II: 0.0234 µM, I: 0.0402 µM, III: 0.103 µM, V: 0.303 µM, IV: 47.3 µM)

====

Multiple publications report Ki for Carbonic anhydrase 9 (Homo sapiens); what follows is a combined list.
measured quantity: Ki (nM)

In the examples that follow, each entry is paired with its recorded Ki.
CCCCCCN(CCCCCC)CC(=O)N(CCC(=O)O)CCc1ccc(S(N)(=O)=O)cc1 : 68.3
CN1C(=O)C(=C2C(=O)Nc3ccc(Cl)cc32)SC1=Nc1ccc(S(N)(=O)=O)cc1 : 55.7

1 = NS(=O)(=O)c1ccc2c(c1)CCN2C(=O)C1CCCCC1
2 = NS(=O)(=O)c1ccc2c(c1)CCN2C(=O)C1CCCC1
Input: Out of 1 and 2 , name the one with the higher Ki. Answer by quoting the chosen item's label.
Output: 1
(1: 223 nM, 2: 133 nM)

====

pKi: −log10 of the molar value.
Multiple publications report pKi for Carbonic anhydrase 9 (Homo sapiens, UniProt Q16790); what follows is a combined list.
measured quantity: pKi

COc1ccc(NS(=O)(=O)c2ccc(Nc3ncc4c(n3)CC(C)(C)CC4=O)cc2)cc1 : 4.32
CCN(CC)CC(=O)N(CCc1ccc(S(N)(=O)=O)cc1)Cc1ccccc1 : 7.51
COc1cc(/C=C/C(=O)OCCCN(C)CCCOC(=O)COc2ccc3ccc(=O)oc3c2)cc(OC)c1OC : 6.85
NS(=O)(=O)c1ccc(NC(=O)c2ccc3cc[nH]c3c2)cc1 : 6.37
NS(=O)(=O)c1ccc(N2N=C(c3ccc(O)cc3)CC2c2ccccc2)cc1 (stereo not shown) : 6.03
Cc1ccc(C(C)C)c(OCCCCCCCCCCCCOc2ccc3ccc(=O)oc3c2)c1 : 7.42
Cc1ccc(C(C)C)cc1OCCCCCCOc1ccc2ccc(=O)oc2c1 : 7.44
COc1c2ccoc2c(OCC=C(C)C)c2oc(=O)ccc12 : 6.69
NS(=O)(=O)c1ccc(C(=O)Nc2nc(CC(=O)N3CC(=O)N4CCc5ccccc5C4C3)cs2)cc1 (stereo not shown) : 6.92
COc1cc(/C=C/C(=O)OCCCN(C)CCCCCOC(=O)c2ccc(S(N)(=O)=O)cc2)cc(OC)c1OC : 6.68

P = C=CCc1ccc(OCc2cn(CCOc3ccc4ccc(=O)oc4c3)nn2)c(OC)c1
Q = NC1=NC2(CCCCC2)N(c2ccc(S(N)(=O)=O)cc2)C(N)=N1
Input: Could you check which of P and Q has a smaller value for pKi? Answer by quoting the chosen item's label.
Output: Q
(Q: 5.93, P: 7.50)
